# protocol-summary: NCI Yeast Anticancer Drug Screen. Data for the mec2-1 strain (AID 157)
# test-conditions: S. cerevisiae mec2-1 strain, at 50.0 µM, stronger effect = higher value
About 79,000 compounds went through this panel and 15% of them were active in at least one assay; those are over-represented in the sample as a whole.

{"molecule": "Cc1ccc(-c2c(N)nc(NC#N)nc2CCC(=O)Nc2ccccc2[N+](=O)[O-])cc1", "growth inhibition (%)": 1.35}
{"molecule": "CCOC(=O)CN1CCC(C(=O)OCC)CC1", "growth inhibition (%)": -27}
{"molecule": "O=C1NNC2(C(=O)N1)c1ccccc1-c1ccccc12", "growth inhibition (%)": -19.5}
{"molecule": "Nc1nc2c([nH]c(=O)n2C2OC(CO)C(O)C2O)c(=O)n1N (stereo not given)", "growth inhibition (%)": 6.2}
{"molecule": "CCOC(=O)C(=CN1CCCc2ccccc21)C(=O)OCC", "growth inhibition (%)": -17.1}
{"molecule": "O=C(Nc1ccc(Cl)cc1)OCc1ccco1", "growth inhibition (%)": 24.1}
{"molecule": "CC(=O)Nc1ccc(/C=N/NS(=O)(=O)c2ccc(C)cc2)cc1", "growth inhibition (%)": 34.7}
{"molecule": "O=C1CCC(=O)N1Cl", "growth inhibition (%)": -1}
{"molecule": "O=C(c1ccccc1)C1(Br)CCCCC1", "growth inhibition (%)": 11.7}
{"molecule": "COc1cc2c(c(OC)c1OC)-c1ccc(SC)c(=O)cc1C(N=C(NC1OCC(OC(C)=O)C(OC(C)=O)C1OC(C)=O)SN(NC(=O)OCc1ccccc1)C(=O)OCc1ccccc1)CC2 (stereo not given)", "growth inhibition (%)": 10.4}
{"molecule": "COc1ccc(NC(=O)C(=O)NNC(=O)c2sc(NNC(C)=O)nc2C)c([N+](=O)[O-])c1", "growth inhibition (%)": -10.7}
{"molecule": "COc1ccc(S(=O)(=O)Oc2ccc(Cl)cc2)cc1", "growth inhibition (%)": 11.6}
{"molecule": "C/C(CC(=O)Nc1ccc(Cl)cc1)=N\\NC(N)=S", "growth inhibition (%)": -4.65}
{"molecule": "C#CCOCn1cc(C)c(=O)[nH]c1=O", "growth inhibition (%)": -0.1}
{"molecule": "O=C(O)/C=C/C=C/c1ccccc1", "growth inhibition (%)": 8.95}
{"molecule": "CC1(C)C2CC=C(CCO)C1C2 (stereo not given)", "growth inhibition (%)": -5.8}
{"molecule": "CC1CN(C(=S)Nc2cccc3ccccc23)CC(C)O1 (stereo not given)", "growth inhibition (%)": 36.5}
{"molecule": "Cc1cccc(C)c1NC(=S)N(CCC#N)C1CC(C)CC(C)(C)C1 (stereo not given)", "growth inhibition (%)": 4.35}
{"molecule": "Cn1nc(-c2ccc(Cl)c(Cl)c2)[n+]([O-])c2c(=O)n(C)c(=O)nc1-2", "growth inhibition (%)": 92.1}
{"molecule": "O=C(O)C1CSC(c2ccccc2O)N1 (stereo not given)", "growth inhibition (%)": -2.75}

---

# protocol-summary: NCI Yeast Anticancer Drug Screen. Data for the bub3 strain (AID 167)
# test-conditions: S. cerevisiae bub3 mutant strain, at 50.0 µM, stronger effect = higher value
The panel holds about 79,000 compounds, 15% with a hit somewhere; the sample as a whole holds those more often.

{"compound": "CCOC(=O)Cc1csc(N=Nc2c(O)[nH]c3ccccc23)n1", "growth inhibition / %": 5.85}
{"compound": "O=C(OC(=O)c1ccc(Cl)cc1)c1ccc(Cl)cc1", "growth inhibition / %": -9.2}
{"compound": "CSc1ccc(NC(=O)Nc2cc(C(C)C)ccc2C)cc1", "growth inhibition / %": 43.2}
{"compound": "CC(C)N(C(=O)C12CC3CC(CC(C3)C1)C2)C(C)C", "growth inhibition / %": 20.9}
{"compound": "CCCCCCC(=O)CC(SCCS)c1ccc(Cl)c(Cl)c1 (stereo unspecified)", "growth inhibition / %": -1.4}
{"compound": "CC(C)NC(=O)C1CC2C=CC1C2 (stereo unspecified)", "growth inhibition / %": -9.85}
{"compound": "CC(C)/C=C(/CC(C)C)C(CCC(=O)Nc1ccccc1)C(=O)Nc1ccccc1 (stereo unspecified)", "growth inhibition / %": 1.8}
{"compound": "CC(CN1CCCC1)(Oc1ccccc1)C(=O)c1ccccc1 (stereo unspecified)", "growth inhibition / %": 10.1}
{"compound": "O=C(O)CCC(=O)Oc1ccc(O)c2c1CCCC2=O", "growth inhibition / %": -1.3}
{"compound": "CCCCCCCCCC(=O)N/N=C/c1ccccc1O", "growth inhibition / %": 19.9}
{"compound": "CN(C)/N=C1/CCCCC1C(O)(c1ccccc1)c1ccccc1 (stereo unspecified)", "growth inhibition / %": -58.8}

---

Entries and their growth inhibition values follow.
# protocol-summary: NCI Yeast Anticancer Drug Screen. Data for the cln2 rad14 strain (AID 165);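 further: 0% = growth equal to vehicle treated cultures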
# test-conditions: S. cerevisiae cln2 rad14 strain, at 50.0 µM, stronger effect = higher value
This is part of a sample that, as a whole, favours compounds with a hit. Of some 79,000 tested, about 15% had one in any assay.
observed-property: growth inhibition (%)

{"molecule": "c1ccc(B2O[C@H]3CCCC[C@@H]3O2)cc1", "scale-unit": "%", "recorded-number": 12.8}
{"molecule": "CCOc1ccccc1NC(=S)NC1CCCCC1", "scale-unit": "%", "recorded-number": -17.2}
{"molecule": "C[C@]12CC[C@@H]3c4ccc(OP(=O)(O)O)cc4CC[C@H]3[C@@H]1CCC2=O", "scale-unit": "%", "recorded-number": -23.9}
{"molecule": "CNN=C(C)C", "scale-unit": "%", "recorded-number": -4.8}
{"molecule": "Cc1cc2ncn(CO)c2cc1C", "scale-unit": "%", "recorded-number": -7.4}
{"molecule": "Cc1cccc2cc3ccc4ccccc4c3cc12", "scale-unit": "%", "recorded-number": 14.8}
{"molecule": "C=CCC(O)CC=C", "scale-unit": "%", "recorded-number": -6.5}
{"molecule": "CC(C)CC(=O)c1ccccn1", "scale-unit": "%", "recorded-number": 7.95}
{"molecule": "Cc1cc(OC(=O)Nc2cccc(Cl)c2C)ccc1[N+](=O)[O-]", "scale-unit": "%", "recorded-number": 3.95}
{"molecule": "O=c1[nH]c(=S)[nH]n1C(=S)n1[nH]c(=S)[nH]c1=O", "scale-unit": "%", "recorded-number": -7.8}
{"molecule": "CC(=O)Nc1ccc2c(c1)C(N1CCCCC1)c1ccccc1-2 (centres undefined)", "scale-unit": "%", "recorded-number": -40.1}
{"molecule": "COC(=O)CCC(=O)c1ccc2c(c1)CC1(C2)Cc2ccc3c(c2C1)CCCC3=O (centres undefined)", "scale-unit": "%", "recorded-number": 5.9}
{"molecule": "CCNC(=O)NCc1cc(C)ccc1C", "scale-unit": "%", "recorded-number": 19.2}
{"molecule": "Cc1ccc(NC(=O)CCc2cc(C(C)(C)C)nc(=S)[nH]2)cc1C", "scale-unit": "%", "recorded-number": -30.6}
{"molecule": "Clc1cc(Br)c2c(Cl)ccnc2c1Br", "scale-unit": "%", "recorded-number": -8.65}
{"molecule": "NC(=O)c1ccc(Cl)c([N+](=O)[O-])c1", "scale-unit": "%", "recorded-number": 6.45}
{"molecule": "CC1(C)[C@H]2CC[C@@]1(C)C(=O)[C@H]2[N+](=O)[O-]", "scale-unit": "%", "recorded-number": 7.85}
{"molecule": "Cc1c[nH]c(=O)n(CC(=O)C2(O)CCC3C4CCC5=CC(=O)CCC5(C)C4CCC32C)c1=O (centres undefined)", "scale-unit": "%", "recorded-number": 13.2}
{"molecule": "COc1ccc(CCNC(=O)CC2CCN(Cc3ccccc3)CC2)cc1OC", "scale-unit": "%", "recorded-number": -3.75}
{"molecule": "O=C(NC(CSSCC(NC(=O)OCc1ccccc1)C(=O)O)C(=O)O)OCc1ccccc1 (centres undefined)", "scale-unit": "%", "recorded-number": -4.1}
{"molecule": "CCC(Cc1ccco1)C(=O)NC(N)=O (centres undefined)", "scale-unit": "%", "recorded-number": -9.1}
{"molecule": "Nc1ccc(-c2nc3ccc(N)cc3[nH]2)cc1", "scale-unit": "%", "recorded-number": 6.45}
{"molecule": "COc1nsc2ccc(C(C)C(N)=O)cc12 (centres undefined)", "scale-unit": "%", "recorded-number": -22.4}
{"molecule": "C/C(=N\\Nc1ccccc1)c1sc(-c2nc(C)c(/C(C)=N/Nc3ccccc3)s2)nc1C", "scale-unit": "%", "recorded-number": -29}
{"molecule": "Oc1ccccc1CN1CCOCC1 (tested in a mixture with another compound)", "scale-unit": "%", "recorded-number": -46.2}
{"molecule": "CC1OC2CC(O)C1(O)C1=C2C(O)=C(C(N)=O)C(=N)C1=O (centres undefined)", "scale-unit": "%", "recorded-number": 6.8}
{"molecule": "O=NN1C2CCCCC2C2CCCCC21 (centres undefined)", "scale-unit": "%", "recorded-number": -5.25}
{"molecule": "COc1ccc(C(C)=C2C=C(C(C)(C)C)C(=O)C(C(C)(C)C)=C2)cc1", "scale-unit": "%", "recorded-number": 34.2}
{"molecule": "CCCCCCCCCCCCCCCCOc1ccc(C2=NCC(C)S2)c(C)c1 (centres undefined)", "scale-unit": "%", "recorded-number": 45.7}
{"molecule": "[B-][N+]1(C)CC[N+]([B-])(C)CC1 (centres undefined)", "scale-unit": "%", "recorded-number": 16.1}
{"molecule": "CCC1(O)CC2C3C(C(=O)OC)=C4Nc5ccccc5C45CCN(C31)C25 (centres undefined)", "scale-unit": "%", "recorded-number": 11.8}
{"molecule": "O=C1Cc2ccccc2C(=O)N1", "scale-unit": "%", "recorded-number": 7.4}
{"molecule": "O=C1OC(c2ccccc2)=C/C1=C/c1ccc(Cl)cc1", "scale-unit": "%", "recorded-number": -6.2}
{"molecule": "Cc1c(C)c(C)c(CC2(C)CSC2)c(CC2(C)CSC2)c1C", "scale-unit": "%", "recorded-number": 14.6}
{"molecule": "O=c1onc2c3ccccc3ncn12", "scale-unit": "%", "recorded-number": -11.4}
{"molecule": "CCCCCCCCCCCCCCCCCC/C(CC)=N/Nc1ccc([N+](=O)[O-])cc1[N+](=O)[O-]", "scale-unit": "%", "recorded-number": -25.1}
{"molecule": "O=C(O)COc1ccc(I)cc1I", "scale-unit": "%", "recorded-number": -37.5}
{"molecule": "CC1=CC(=O)c2ccc3c4ccccc4n(C)c3c2C1=O", "scale-unit": "%", "recorded-number": 0.2}
{"molecule": "Cc1ccc([N+](=O)[O-])cc1NC(=O)Oc1cc(=O)oc2ccccc12", "scale-unit": "%", "recorded-number": -18.1}
